Test system: UO-31 renal
Method Description: NCI tumour cell line growth inhibition, 48 h; in the data active = GI50 below about 0.43 µM; inactive = the rest
Valid outcomes are listed here; reply with one: active, inactive

| Molecule | Group |
| --- | --- |
| O=C(c1cccs1)c1c(C(F)(F)F)n([O-])c2cc(C(F)(F)F)ccc2[n+]1=O | active |
| C[C@]12CC[C@H]3[C@@H](CC=C4C[C@@H](O)CC[C@@]43C)[C@@H]1C/C(=C\c1cccc(OCCCn3ccnc3)c1)[C@@H]2O | inactive |
| COc1cc2c(cc1OCCCCCN1CCN(c3cc(=O)oc4c(C)c(OC)ccc34)CC1)N=C[C@@H]1CCCN1C2=O | active |
| O=S(=O)(NCCNc1cc(-c2cn(-c3ccccc3)nc2-c2cccc(O)c2)ccn1)c1ccc(F)cc1 | inactive |
| O=c1[nH]cnc2c1nnn2[C@@H]1O[C@H](CO)[C@@H](O)[C@H]1O | inactive |
| N#Cc1c(SCc2ccccc2)nc2[nH]c(=S)[nH]c(=S)c2c1-c1ccco1 | inactive |
| CCC(=O)Nc1ccc2c(c1)CN1C(=O)c3ccccc3C1=N2 | inactive |
| COc1cc(/C=C/C(=O)CC(=O)/C=C/c2ccc(OC(=O)CCNC34CC5CC(CC(C5)C3)C4)c(OC)c2)ccc1OC(=O)CCNC12CC3CC(CC(C3)C1)C2 | inactive |

Could you check what this test reported for O=C1CN2CCC1C/C2=C\c1ccnc2c(Cl)cccc12 (configuration not stated) ?
inactive

Could you check what this test reported for CC1=C([Se]CC(OC(=O)[C@@H](CSSC(C)(C)C)NC(=O)C(C)(C)C)C(=O)NCCCCCC(=O)OCc2ccccc2)C(=O)c2ccccc2C1=O (some centres not stated) ?
inactive

Could you check what this test reported for CC1(C)OC(=O)C=C(O)O1.CC1(C)OC(=O)C=C(O)O1.CCO.Oc1ccc2c(c1)CCC2.[Ti] ?
inactive

Could you check what this test reported for CCCN1C(=O)/C(=C/c2ccc(O)cc2)SC1=Nc1ccccc1 ?
inactive

Could you check what this test reported for C/C(=C\c1ccn(-c2ccc(N)cc2C(F)(F)F)n1)[C@@H]1C[C@@H]2O[C@]2(C)CCC[C@H](C)[C@H](O)[C@@H](C)C(=O)C(C)(C)[C@@H](O)CC(=O)O1 ?
inactive

Could you check what this test reported for CNC(=O)c1ccc(Nc2nc(OC3CCCC3)c3c(-c4ccc5nc(C)oc5c4)c[nH]c3n2)c(OC)c1 ?
inactive

Could you check what this test reported for C[C@@H](Oc1cc(-c2cnn(C3CC4(CCNCC4)C3)c2)cnc1N)c1c(F)ccc(Cl)c1Cl ?
inactive

Could you check what this test reported for O=C(/C=C/c1ccc2c(c1)OCO2)c1ccccc1 ?
inactive

Could you check what this test reported for COc1cc2c3c(n(CCCn4ccnc4)c(=O)c2cc1OC)-c1ccccc1C3=O ?
active
